Entries and their fluorescence slope
- STUDY SYSTEM: Voltage-gated potassium channel subunit beta-2 (Rattus norvegicus) (UniProt P62483)
- Sequence (P62483 whole entry, looked up): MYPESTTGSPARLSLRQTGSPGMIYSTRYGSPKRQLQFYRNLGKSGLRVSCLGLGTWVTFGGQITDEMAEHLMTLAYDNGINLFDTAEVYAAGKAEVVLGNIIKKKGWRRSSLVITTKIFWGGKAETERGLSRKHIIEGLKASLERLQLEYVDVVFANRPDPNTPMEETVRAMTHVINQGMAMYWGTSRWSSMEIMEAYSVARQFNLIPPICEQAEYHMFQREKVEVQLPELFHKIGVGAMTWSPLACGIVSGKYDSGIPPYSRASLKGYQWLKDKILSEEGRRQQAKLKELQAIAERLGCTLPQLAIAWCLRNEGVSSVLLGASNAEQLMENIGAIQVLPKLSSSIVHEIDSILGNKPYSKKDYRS
- PROTOCOL DESCRIPTION: inhibitors of rat Kvbeta2 reductase activity – biochemical, NADPH fluorescence, primary screen (AID 622);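 note: slope of raw intensity against log time taken from 70 to 1610 s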
- EXPERIMENTAL CONTEXT: recombinant KvBeta, 4-cyanobenzaldehyde reduction, at 10 µM, active compounds read high
The answer should be written as a number, with no unit following it.

Check out these entries, answers already filled in.
>  <COMPOUND>
Cc1ccc(-c2noc(CN3CCN(c4ccccc4F)CC3)n2)cc1

>  <fluorescence slope>
-0.556

$$$$
>  <COMPOUND>
COCCn1c(CN2CCN(c3cccc(Cl)c3)CC2)nc2c1c(=O)n(C)c(=O)n2C

>  <fluorescence slope>
-0.582

$$$$
>  <COMPOUND>
O=S(=O)(c1ccc2ccccc2c1)N1CCCCC1

>  <fluorescence slope>
-0.413

$$$$
>  <COMPOUND>
COc1ccc(CCNC(=O)C2(C)CCC(=O)N2Cc2ccc3c(c2)OCO3)cc1OC (configuration not stated)

>  <fluorescence slope>
-0.59

$$$$

Challenge: What value of measured fluorescence slope is listed for COc1ccc(C(=O)CN2C3=NCCCN3c3ccccc32)cc1OC ?
Response given: -0.475

Challenge: // same read-out, input: COc1ccc(C(=O)Nc2cccc(-c3nc4ncccc4o3)c2C)cc1OC
Response given: -0.562

Challenge: // same read-out, input: O=C1c2ccccc2C(Nc2cccnc2)N1Cc1ccccc1Cl (configuration not stated)
Response given: -0.422

Challenge: // same read-out, input: Cc1cc(C)cc(N(CC(=O)NC2CCC(C)CC2)S(=O)(=O)c2c(C)noc2C)c1 (configuration not stated)
Response given: -0.622

Challenge: // same read-out, input: C=CCN(C(=O)CNC(=O)c1ccco1)C(C(=O)NC1CCCCC1)c1ccccc1F (configuration not stated)
Response given: -0.612

Challenge: // same read-out, input: CCc1nn(CC(=O)N2CCN(Cc3ccc4c(c3)OCO4)CC2)c(=O)c2cc3occc3n12
Response given: -0.353

Challenge: // same read-out, input: Fc1cccc(Nc2cc(-n3cccn3)ncn2)c1
Response given: -0.509

Challenge: // same read-out, input: COc1cc2c3c(c1)/C(=C1/SC(NC(C)=O)=NC1=O)C(=O)N3C(C)(C)C=C2C
Response given: -0.467

Challenge: // same read-out, input: C=CCn1c(-c2cccs2)nc2nc3ccccc3nc21
Response given: -0.602

Challenge: // same read-out, input: COCCN(CC(=O)NCc1ccccc1)C(=O)CCC(=O)Nc1ccccn1
Response given: -0.506

Challenge: // same read-out, input: COc1cc(C(=O)Nc2ccc(-n3cnnn3)c(C)c2)cc(OC)c1OC
Response given: -0.617

Challenge: // same read-out, input: Cc1cnc(C(=O)Nc2nnc(C(C)C)s2)cn1
Response given: -0.5

Challenge: // same read-out, input: CC(CN1CCCCC1)OC(=O)c1ccc(Cl)cc1Cl (configuration not stated)
Response given: -0.438

Challenge: // same read-out, input: O=C(Nc1ccc(Cc2ccc(NC(=O)N3CCOCC3)cc2)cc1)N1CCOCC1
Response given: -0.416

Challenge: // same read-out, input: O=C(c1ccc2c(c1)c(=O)oc1ccccc12)N1CCCCC1
Response given: -0.363

Challenge: // same read-out, input: O=C(c1ccc(-c2ccccc2)cc1)N1CCC(C(=O)N2CCCC2)CC1
Response given: -0.388

Challenge: // same read-out, input: CC1(C)CC(=O)N(CC(=O)NCc2ccccc2)c2ccccc2S1(=O)=O
Response given: -0.602

Challenge: // same read-out, input: COc1ccccc1N1CCN(C(=O)CN(Cc2ccc(Cl)cc2)S(C)(=O)=O)CC1
Response given: -0.49

Values compiled from PubChem BioAssay.
